molecular target: Cholinesterase (Homo sapiens, UniProt P06276); experiment: Inhibition of BuChE (unknown origin)
Sequence (P06276 whole entry): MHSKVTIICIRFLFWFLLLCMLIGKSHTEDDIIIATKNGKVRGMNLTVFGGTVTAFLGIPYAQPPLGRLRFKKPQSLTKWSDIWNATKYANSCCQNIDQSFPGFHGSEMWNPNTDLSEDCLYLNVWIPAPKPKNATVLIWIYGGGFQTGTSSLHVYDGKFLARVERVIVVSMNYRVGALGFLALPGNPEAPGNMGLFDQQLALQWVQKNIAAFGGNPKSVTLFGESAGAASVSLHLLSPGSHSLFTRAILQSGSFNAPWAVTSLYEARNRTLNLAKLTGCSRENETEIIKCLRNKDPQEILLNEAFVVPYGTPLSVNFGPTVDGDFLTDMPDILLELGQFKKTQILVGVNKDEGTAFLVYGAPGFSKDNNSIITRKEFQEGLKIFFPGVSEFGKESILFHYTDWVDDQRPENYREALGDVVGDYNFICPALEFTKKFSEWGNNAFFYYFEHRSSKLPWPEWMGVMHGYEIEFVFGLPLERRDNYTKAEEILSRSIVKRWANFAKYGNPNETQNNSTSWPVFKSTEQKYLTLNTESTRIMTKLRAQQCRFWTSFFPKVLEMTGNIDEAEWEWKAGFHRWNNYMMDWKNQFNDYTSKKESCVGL
Parameter Measured: IC50 (nM)
Quick note: give the figure in nM, leave out the unit.

Find IC50 (Cholinesterase (Homo sapiens, UniProt P06276)) for the entry O=C(Nc1cccc(-c2cc(-c3ccc(Cl)cc3)n[nH]2)c1)c1ccccc1 1170

----------
target: UniProt P22303; experiment: Inhibition of AChE (unknown origin) by Ellman's method
Sequence (P22303 whole entry): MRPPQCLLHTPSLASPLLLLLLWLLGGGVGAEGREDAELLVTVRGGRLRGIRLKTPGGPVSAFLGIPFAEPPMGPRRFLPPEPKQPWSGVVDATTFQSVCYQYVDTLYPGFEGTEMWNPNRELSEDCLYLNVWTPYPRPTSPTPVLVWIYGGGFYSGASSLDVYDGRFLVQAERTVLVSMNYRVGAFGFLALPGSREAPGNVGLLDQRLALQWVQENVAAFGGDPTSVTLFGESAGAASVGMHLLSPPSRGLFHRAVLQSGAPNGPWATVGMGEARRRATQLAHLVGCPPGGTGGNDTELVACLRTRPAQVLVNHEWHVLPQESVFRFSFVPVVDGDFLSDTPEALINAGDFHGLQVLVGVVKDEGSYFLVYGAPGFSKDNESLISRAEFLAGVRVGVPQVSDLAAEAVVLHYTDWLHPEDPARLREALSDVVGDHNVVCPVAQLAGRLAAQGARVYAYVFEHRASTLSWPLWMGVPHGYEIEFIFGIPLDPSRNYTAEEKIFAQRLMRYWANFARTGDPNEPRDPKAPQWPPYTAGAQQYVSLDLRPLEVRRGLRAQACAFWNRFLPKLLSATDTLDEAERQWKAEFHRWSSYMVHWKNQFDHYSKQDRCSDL
Decision: IC50 beneath 20 µM gives 1 (yes); IC50 meeting or exceeding 20 µM gives 0 (no).

O=C1Nc2ccccc2C12NNC(Nc1cccc(Cl)c1)=C2[N+](=O)[O-] (stereo unspecified) = 1 (yes)
Cc1ccccc1NC1=C([N+](=O)[O-])C2(NN1)C(=O)Nc1c(C(F)(F)F)cccc12 (stereo unspecified) = 1 (yes)
COc1ccc(OC)c(NC2=C([N+](=O)[O-])C3(NN2)C(=O)Nc2ccc([N+](=O)[O-])cc23)c1 (stereo unspecified) = 0 (no)

Find out if reported IC50 for O=C1Nc2ccc([N+](=O)[O-])cc2C12NNC(Nc1ccc(Cl)cc1)=C2[N+](=O)[O-] (stereo unspecified) is less than 20 µM 0 (no)

Find out if reported IC50 for Cc1ccccc1NC1=C([N+](=O)[O-])C2(NN1)C(=O)Nc1ccc([N+](=O)[O-])cc12 (stereo unspecified) is less than 20 µM 1 (yes)

Find out if reported IC50 for Cc1ccccc1NC1=C([N+](=O)[O-])C2(NN1)C(=O)Nc1ccc(Br)cc12 (stereo unspecified) is less than 20 µM 0 (no)
